src = PubChem BioAssay (NCI)

Tested on: NCI-H23 lung
Experiment: NCI tumour cell line growth inhibition, 48 h
Endpoint: TGI

Identify the measured TGI of O=C1OCC2=C1C(c1cccc(C(F)(F)F)c1)c1cc3c(cc1N2CCO)OCO3 (centres undefined) for NCI-H23 lung.
> 50 µM

Proceed to O=C(CCc1ccco1)NC1CCN(CC2(c3ccc(Cl)cc3)CCC2)CC1
38.7 µM

Proceed to Nc1cc(S(=O)(=O)O)cc2cc(S(=O)(=O)O)c(N=Nc3ccc(-c4ccc(N=Nc5c(S(=O)(=O)O)cc6cc(S(=O)(=O)O)cc(N)c6c5O)cc4)cc3)c(O)c12
> 100 µM

Proceed to CCOC(=O)NC(Nc1ccc(F)c(F)c1)(C(=O)OCC)C(F)(F)F (centres undefined)
> 100 µM
